Listed next: entries and their corresponding zone of inhibition at 1000 µg/mL.
Test system: Bacillus subtilis
Assay: Antibacterial activity against Bacillus subtilis assessed as growth inhibition at 1 mg/ml by cup-plate method
Type: functional
Details: read-out: IZ

molecule	zone of inhibition at 1000 µg/mL / mm
Cc1cc(C)n(C(=O)n2c(=O)c3ccccc3c3c4cc(Cl)ccc4[nH]c32)n1	11
COc1ccc2[nH]c3c(c2c1)c1ccccc1c(=O)n3C(=O)N1N=C(C)CC1=O	10
CN[C@@H]1[C@H](O[C@H]2[C@H](O[C@H]3[C@H](O)[C@@H](O)[C@H](N=C(N)N)[C@@H](O)[C@@H]3N=C(N)N)O[C@@H](C)[C@]2(O)C=O)O[C@@H](CO)[C@H](O)[C@H]1O [STREPTOMYCIN]	20
CC1=NN(C(=O)n2c(=O)c3ccccc3c3c4cc(C)ccc4[nH]c32)C(=O)C1	8

Reference for the values: ChEMBL document CHEMBL3045682
